# System: Human immunodeficiency virus
# Experimental Details: Effective concentration required to achieve 50% protection of MT-4 cells against the cytopathic effect of HIV-1 (HTLV-IIIB).
# Format: functional, organism-based
# Test Conditions: Human immunodeficiency virus 1, MT4
Endpoint: EC50 (µM)

1. Cc1c(Oc2ccccc2)n(COCCO)c(=O)[nH]c1=O
2. Nc1ccn([C@H]2CC[C@@H](CO)O2)c(=O)n1 [ZALCITABINE]
3. O=c1[nH]c(=O)n(COCCO)c(Sc2ccccc2)c1C=C(c1ccccc1)c1ccccc1
4. CCCCSc1c(C)c(=O)[nH]c(=O)n1COCCO
5. Nc1ncnc2c1ncn2[C@H]1CC[C@@H](CO)O1
IN: # rank above entries by EC50 (max first, min last) I'd appreciate it if you listed the labels in the requested order.
OUT: 4, 1, 5, 3, 2
(4: 130 µM, 1: 85 µM, 5: 6.3 µM, 3: 0.84 µM, 2: 0.3 µM)

a. O=c1[nH]c(=O)n(COCCO)c(Sc2ccccc2)c1I
b. Cc1c(SC2CCCCC2)n(COCCO)c(=O)[nH]c1=O
c. C=Cc1c(Sc2ccccc2)n(COCCO)c(=O)[nH]c1=O
IN: Sort ascending by EC50. I'd appreciate it if you listed the labels in the requested order.
OUT: c, a, b
(c: 1.1 µM, a: 3.6 µM, b: 8.2 µM)

====

Parameter: EC50. Scope: all listed entries.
# Test system: Human immunodeficiency virus
# Experimental Details: Effective concentration required to achieve 50% protection of MT-4 cells against the cytopathic effect of HIV-1 (HTLV-IIIB).
# Assay type: functional, organism-based
# Test Conditions: Human immunodeficiency virus 1, MT4

Here is how some compounds turned out for EC50.
Smi	EC50
Cc1c(Br)n(COCCO)c(=O)[nH]c1=O	> 180 µM
C/C=C/c1c(C)c(=O)[nH]c(=O)n1COCCO	> 250 µM
Cc1c(C(=O)c2ccccc2)n(COCCO)c(=O)[nH]c1=O	> 366 µM
Cc1c(Cl)n(COCCO)c(=O)[nH]c1=O	> 250 µM
Cc1c(Cc2ccccc2)n(COCCO)c(=O)[nH]c1=O	23 µM
C#Cc1c(C)c(=O)[nH]c(=O)n1COCCO	> 5.5 µM

The reported EC50 of the compound `Cc1c(Nc2ccccc2)n(COCCO)c(=O)[nH]c1=O` was > 327 µM

The reported EC50 of the compound `CSc1c(C)c(=O)[nH]c(=O)n1COCCO` was > 250 µM

The reported EC50 of the compound `O=c1[nH]c(=O)n(COCCO)c(Sc2ccccc2)c1Cc1ccccc1` was > 23 µM

The reported EC50 of the compound `Cc1c(/C=C/c2ccccc2)n(COCCO)c(=O)[nH]c1=O` was > 250 µM

The reported EC50 of the compound `O=C(c1ccccc1)c1c(Sc2ccccc2)n(COCCO)c(=O)[nH]c1=O` was > 13 µM

The reported EC50 of the compound `Cc1cn([C@H]2C[C@H](N=[N+]=[N-])[C@@H](CO)O2)c(=O)[nH]c1=O` was 0.016 µM

====

# Tested on: Human immunodeficiency virus
# Experimental Details: Effective concentration required to achieve 50% protection of MT-4 cells against the cytopathic effect of HIV-1 (HTLV-IIIB).
# Assay type: functional, organism-based
# Test Conditions: Human immunodeficiency virus 1, MT4
Parameter: EC50. Scope: all listed entries.

Compound	Result
O=c1[nH]c(=O)n(COCCO)c(Sc2ccccc2)c1/C=C/c1ccccc1	6 µM
CC(C)C(=O)c1c(Sc2ccccc2)n(COCCO)c(=O)[nH]c1=O	> 12 µM
Cc1c(Sc2ccccc2)n(COCCO)c(=O)[nH]c1=O	7 µM

The reported EC50 of the compound `COc1c(C)c(=O)[nH]c(=O)n1COCCO` was > 484 µM

The reported EC50 of the compound `C#Cc1c(Sc2ccccc2)n(COCCO)c(=O)[nH]c1=O` was > 18 µM

The reported EC50 of the compound `CCSc1c(C)c(=O)[nH]c(=O)n1COCCO` was > 250 µM

The reported EC50 of the compound `Cc1c(NC2CCCCC2)n(COCCO)c(=O)[nH]c1=O` was > 377 µM
